- SYSTEM: Glycogen synthase kinase-3 beta splice variant X1 (Bos taurus)
- PROTOCOL SUMMARY: Inhibition Assay: A mixture containing 100 mM MES-sodium hydroxide (pH 6.5), 1 mM magnesium acetate, 0.5 mM EGTA, 5 mM, β-mercaptoethanol, 0.02% Tween 20, 10% glycerol, 12 µg/ml P-GS1, 41.7 µM [γ-^32P] ATP (68 kBq/ml), bovine cerebral TPK1 and a compound shown in Table (a final mixture contained 1.7% DMSO deriving from a solution of a test compound prepared in the presence of 10% DMSO) was used as a reaction system. The phosphorylation was started by adding ATP, and the reaction was conducted at 25° C. for 2 hours, and then stopped by adding 21% perchloric acid on ice cooling. The reaction mixture was centrifuged at 12,000 rpm for 5 minutes and adsorbed on P81 paper (Whatmann), and then the paper was washed four times with 75 mM phosphoric acid, three times with water and once with acetone. The paper was dried, and the residual radioactivity was measured using a liquid scintillation counter.
MEASURED PROPERTY: IC50 (µM)
Your answer is read as µM, so omit the unit and give the number.

Entry under test: Cn1c(OCC(=O)c2ccccc2)nc(-c2ccncn2)cc1=O . Its IC50 was 0.02

Entry under test: Cn1c(OCC(=O)c2ccc(Br)cc2)nc(-c2ccncn2)cc1=O . Its IC50 was 0.108

Data point: Cn1c(OCC(=O)c2ccc(Br)cc2)nc(-c2ccncc2)cc1=O ; IC50 = 0.167

The molecule listed as Cn1c(OCC(=O)c2ccc(Br)cc2)nc(-c2ccncc2F)cc1=O has a reported IC50 of 0.027
